Observation type: melting point (°C)

{"Compound": "COc1ccc(-c2cn([C@@H]3O[C@H](CO)[C@@H](O)[C@@]3(C)O)c3ncnc(N)c23)cc1 [Compound 7b]", "melting point [°C]": 127}
{"Compound": "C[C@@]1(O)[C@H](O)[C@@H](CO)O[C@H]1n1cc(-c2ccccc2)c2c(N)ncnc21 [Compound 7a]", "melting point [°C]": 129}
{"Compound": "Nc1ncnc2c1c(-c1cc[nH]n1)cn2[C@@H]1O[C@H](CO)[C@@H](O)[C@H]1O [Compound 2n]", "melting point [°C]": 135}

###

Each record here notes measured CC50.
Tested on: MT-4 T-lymphoid cell line
Assay details: Test B: Cytostatic cell culture assay (CC50), CellTiter Glo, lymphoid tumor cell lines
Assay conditions: Homo sapiens, MT4, 120 h, read-out: CC50 T-lymphoid MT-4
Please give a number only; it is taken to be in nM.

{"Molecule": "Nc1ncnc2c1c(-c1ccoc1)cn2[C@@H]1O[C@H](CO)[C@@H](O)[C@H]1O", "Experimental system": "MT-4 T-lymphoid cell line", "Observation type": "CC50", "Unit info": "nM", "Numeric result": 170}
{"Molecule": "Nc1nc(Cl)nc2c1ncn2[C@@H]1O[C@H](CO)[C@@H](O)[C@@H]1F [Clofarabine, reference compound]", "Experimental system": "MT-4 T-lymphoid cell line", "Observation type": "CC50", "Unit info": "nM", "Numeric result": 51}
{"Molecule": "Nc1ncnc2c1ccn2[C@@H]1O[C@H](CO)[C@@H](O)[C@H]1O [Tubercidin, reference compound]", "Experimental system": "MT-4 T-lymphoid cell line", "Observation type": "CC50", "Unit info": "nM", "Numeric result": 21}
{"Molecule": "C#Cc1cn([C@@H]2O[C@H](CO)[C@@H](O)[C@H]2O)c2ncnc(N)c12", "Experimental system": "MT-4 T-lymphoid cell line", "Observation type": "CC50", "Unit info": "nM", "Numeric result": 1}
{"Molecule": "Nc1ncnc2c1c(-c1cc3ccccc3o1)cn2[C@@H]1O[C@H](CO)[C@@H](O)[C@H]1O", "Experimental system": "MT-4 T-lymphoid cell line", "Observation type": "CC50", "Unit info": "nM", "Numeric result": 4800}
{"Molecule": "COc1ccc(-c2cn([C@@H]3O[C@H](CO)[C@@H](O)[C@H]3O)c3ncnc(N)c23)cc1", "Experimental system": "MT-4 T-lymphoid cell line", "Observation type": "CC50", "Unit info": "nM", "Numeric result": 4300}

Please find the next molecule below.
Value of measured CC50 for the entry `Nc1ncnc2c1c(-c1cccs1)cn2[C@@H]1O[C@H](CO)[C@@H](O)[C@H]1O` : 35

###

Test system: PC3
Assay details: Test A: Cytostatic cell culture assay (CC50), SRB, solid tumor cell lines
Type: cell-based
Assay conditions: Homo sapiens, PC-3, 120 h, read-out: CC50 Prostate PC3
Observation type: CC50 (nM)
Please give a number only; it is taken to be in nM.

Reading of CC50 for Nc1ccn([C@@H]2O[C@H](CO)[C@@H](O)C2(F)F)c(=O)n1 [Gemcitabine, reference compound] with PC3: 6

Reading of CC50 for `Nc1ncnc2c1c(-c1c[nH]cn1)cn2[C@@H]1O[C@H](CO)[C@@H](O)[C@H]1O` with PC3: 2

Reading of CC50 for `Nc1ncnc2c1c(-c1cc3ccccc3o1)cn2[C@@H]1O[C@H](CO)[C@@H](O)[C@H]1O` with PC3: 6290

Reading of CC50 for `Nc1ncnc2c1c(-c1c[nH]nn1)cn2[C@@H]1O[C@H](CO)[C@@H](O)[C@H]1O` with PC3: 5

Reading of CC50 for `COc1ccc(-c2cn([C@@H]3O[C@H](CO)[C@@H](O)[C@H]3O)c3ncnc(N)c23)cc1` with PC3: 1110

Reading of CC50 for `Nc1ncnc2c1c(-c1ncc[nH]1)cn2[C@@H]1O[C@H](CO)[C@@H](O)[C@H]1O` with PC3: 1

Reading of CC50 for `C#Cc1cn([C@@H]2O[C@H](CO)[C@@H](O)[C@H]2O)c2ncnc(N)c12` with PC3: 11

Reading of CC50 for Nc1nc(Cl)nc2c1ncn2[C@@H]1O[C@H](CO)[C@@H](O)[C@@H]1F [Clofarabine, reference compound] with PC3: 63

Reading of CC50 for Nc1ncnc2c1ccn2[C@@H]1O[C@H](CO)[C@@H](O)[C@H]1O [Tubercidin, reference compound] with PC3: 48

Reading of CC50 for `Nc1ncnc2c1c(-c1nccs1)cn2[C@@H]1O[C@H](CO)[C@@H](O)[C@H]1O` with PC3: 42

Reading of CC50 for `Nc1ncnc2c1c(-c1ccc[nH]1)cn2[C@@H]1O[C@H](CO)[C@@H](O)[C@H]1O` with PC3: 87.8

Reading of CC50 for COc1cccc2c1C(=O)c1c(O)c3c(c(O)c1C2=O)C[C@@](O)(C(=O)CO)C[C@@H]3O[C@H]1C[C@H](N)[C@H](O)[C@H](C)O1 [Doxorubicine, reference compound] with PC3: 21

Reading of CC50 for `Nc1ncnc2c1c(-c1cn[nH]c1)cn2[C@@H]1O[C@H](CO)[C@@H](O)[C@H]1O` with PC3: 14

Reading of CC50 for `Nc1ncnc2c1c(-c1cc[nH]n1)cn2[C@@H]1O[C@H](CO)[C@@H](O)[C@H]1O` with PC3: 15

Reading of CC50 for `Nc1ncnc2c1c(-c1cc[nH]c1)cn2[C@@H]1O[C@H](CO)[C@@H](O)[C@H]1O` with PC3: 29
